Source of measurements: the supplement of paper PMC9170038

Tested on: MS2 coat protein
Assay: apparent KD of MS2 coat protein; higher = weaker reporter binding
Conditions: Eterna round: R107; input ligand: theophylline 2 mM
Known apparent KD of MS2 coat protein of a selection of sequences

residue.codes	system	apparent KD of MS2 coat protein, nM
AAAUAAAUACAUGAGGAUCACCCAUGUGAAGGAGCGCCCGUUAGGGCAGGUAGGUCGCACAUGAACUCCAAAGUGCAAAAGCACA [ArgEX 17 #OpenEnded]	MS2 coat protein	27.4
ACAUGAGGAUCACCCAUGUAUUACCGGGAAGGAGCGGCCGGAAGGCCAGGUAGGUCGCUCGGCGUCGUGCUGUAAAGCACGACGA [#1 Same State - Arginine A Attempt #27 (HarryS)]	MS2 coat protein	12.2
GCUAGCCGAAAGGCUAGCAGCGCUACAGAAGGAGCGUGCGAAAGCACAGGUAGGUCGCUGAACAUGAGCAUCAGCCAUGUUGCGC [SSAA - Alter Amptam #2 V2+NP]	MS2 coat protein	18.6
GGCGACAUGAGGAUCACCCAUGUGACACCUCGAGGACCGGUACGGCCGCCACUCGUAACCUGCACUAUAGCUACCACGAUUAGCC [theeternabot_sameState_MS2_Trp_A_44]	MS2 coat protein	233
AAAAGAGGUGGAAGGAGCGGGAGACAUGAGGAUCACCCAUGUGAAGUUACGAAAGGUUCAGCCCAGGUAGGUCGCCAUGUCGAAA [eefemullin]	MS2 coat protein	58.8

###

System: MS2 coat protein
Experiment: apparent KD of MS2 coat protein, switch OFF state (with FMN for OFF switches, without FMN for ON switches); designed switch direction (-1 OFF switch, 1 ON switch): 1; higher = weaker reporter binding
Settings: FMN input: 0 or 200 uM; Eterna round: R93 (includes R88 designs)
Record y whenever apparent KD of MS2 coat protein is at 50 nM or higher; record n when lower.

                              residue_codes            system  classification
0  AAAAAACAUGAGGAUCACCCAUGUCCAAAAAAAAAAGGAUAUGCAAAAAAAAAAAAAAAAGCAGAAGGUUUAAAAA [Same State 1]  MS2 coat protein               n
1  CGUGAACAUGAGGAUCACCCAUGUGAAAAACAUAGAGGAUAUGUCACGUGAGUGUAAAAGACAGAAGGCUAUCGUG [Mod 3 of Round 1 starryjess' Mod pf Nando]  MS2 coat protein               y
2  AAAAAACAUGAGGAUCACCCAUGUGACAACAUGGGAGGAUAUACGAAGACGAGAGUCGAAGUAGAAGGCCUAAAAG [Garnet 78]  MS2 coat protein               y
3  GAGAGACAUGAGGAUCACCCAUGUAGGAUUAUGGGAGGAUAUACAAAGACGAGAGUCAGAGUAGAAGGCCUAGGAU [salish99-ss1-138(!)]  MS2 coat protein               y
4  AAAAGACAUGAGGAUCACCCAUGUCAAGACAUAGGAGGAUAUGUCUUGAAAAAAGACUUGACAGAAGGCCUUUGUC [SS1 - 58]  MS2 coat protein               n
5  AUAACACAUGAGGAUCACCCAUGUAGAAACAAGUCAGGAUAUGCAACCUCAUGAAAUAAAGCAGAAGGGACAAUAA [SS 1 Tesla 4]  MS2 coat protein               y

###

System: MS2 coat protein
Test: apparent KD of MS2 coat protein; designed switch direction (-1 OFF switch, 1 ON switch): -1; higher = weaker reporter binding
Details: input ligand: none
Assign 1 (yes) whenever apparent KD of MS2 coat protein does not fall below 20 nM; assign 0 (no) whenever it does.

residue.codes	classification
CGGUGUAGAGGAUAUACGUGAAUUUUGUUAUUUUUUAAUUUACAUGAGGAUCACCCAUGUAGAAGGCUAUAGCG [JR_Ex2_Sub086] (Eterna round: R97, puzzle: Exclusion 2)	1 (yes)
AGUCGGUCAGGAUAUGCAUACGUAGACAUGAGGAUCACCCAUGUGACGUGGGCCUGGUGUGUAGAAGGGACGAGCA [EX5 #82] (Eterna round: R97, puzzle: Exclusion 5)	0 (no)
AUUUAACAUGAGGAUCACCCAUGUGAGGAUAUGCGAGUAUAGACUUCGGUCUGAUAGAGCAGAAGGCGCAGAUA [EX1 #8] (Eterna round: R97, puzzle: Exclusion 1)	1 (yes)
AAUUAGCAAGCAAGAUCCCACAUGAGGAUCACCCAUGUGCUCGUCUUAUAAGGUACUGUGACGAAAGUCACGGUACC [Mat - Sensor, turn-off var - Eli Mod - D50] (Eterna round: R97, puzzle: Sensor, turn-off variant 1)	1 (yes)
UAUUAGUAAGGAUAUGAGGCGUAGUACGAAAGUACUACGUCUCAGAAGGUACAUGAGGAUCACCCAUGUUCAUU [Mod of Fisker 4 - Jieux - Exclusion 4] (Eterna round: R97, puzzle: Exclusion 4)	0 (no)

###

Tested on: MS2 coat protein
Experiment: apparent KD of MS2 coat protein; designed switch direction (-1 OFF switch, 1 ON switch): -1; higher = weaker reporter binding
Details: input ligand: FMN 200 uM

residue.codes	apparent KD of MS2 coat protein (nM)
UCAUGUUUAGAGGAUAUGAUUACUUUUGAGUAAUCAGAAGGCUAGACAUGAGGAUCACCCAUGUCAUAACAUGA [Exclusion 6 - B - 15:d] (Eterna round: R96, puzzle: Exclusion 6)	341
AAUGAUUGACGAGGAUAUUGUGGUGAAACACGACGAGAAGGCGUAUGUCACAUGAGGAUCACCCAUGUGAGCUUUGUGGAUAUA [Ex NG1 #68] (Eterna round: R96, puzzle: Exclusion NG 1)	34.7
GGUACUCAAAGAGUACCAAUACGAACAUGAGGAUCACCCAUGUAGGAUAUGCUACUCAAAGAGUAGCAGAAGGACGUGAACCCU [Far Half Aptamer] (Eterna round: R96, puzzle: Exclusion NG 3)	164
ACAUUCAGAGGAUAUGCGCAUAGAUAAGACUUUUUUUUUUAACAUGAGGAUCACCCAUGUAGAAGGCUGUAACC [Ex2 #48] (Eterna round: R97, puzzle: Exclusion 2)	23.8
UCAAUACGGAAGGAUAUGCCGAAGCAUGCGCAGGCAGAAGGUCUGACAUGAGGAUCACCCAUGUUGGAGAUCAA [Eternabot (L2) Solution 21] (Eterna round: R97, puzzle: Exclusion 6)	82.1

###

Test system: K4 kissing-loop RNA reporter;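 also: bound reporter read as fluorescence of individual clusters on recovered sequencing chips by microscopy, with normalized cluster intensities fitted with a binding model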
Assay: apparent KD of K4 kissing-loop reporter; higher = weaker reporter binding
Conditions: Eterna round: R107; input ligand: theophylline 20 uM
recorded.metric: apparent KD of K4 kissing-loop reporter (nM)

>>> print(df.to_string())
                               residue_codes  quantitative_result
 0  CUCGAGUGAUGUUCGUUUAUUUAUACAGAUACCAGUGAAUUUUAACACCCUUGGCAGCUGGUUGUAUCUUUGUUUUUUACACAAG [JR_Nu_ExcTheophyA_Sub024]                  338
 1  GUAUCGCUAGGAGGAUAUUCCGUUUUUCAUAGCAAUGGCUAUGCGGAGUGAUGUUCCGAUUUACCGGAAGAAGGCCUAGUGAUAC [FMN B 24]                  148
 2  AAGUGAUGUUGUAGUGAUGUUGUGAUGUUGCAGGAUAUAUAGUGAUGUAGAAGGGUAUGUGCAGUUUUAUUUUUUGAGUGUUGAU [ttytmullin]                 42.2
 3  AAGCAGUCACUCUAAGCCAUCGAAGAUGGUCGAGGACCGGUACGGCCGCCACUCGGAGUGAUGUUCCGAAGACUGCAAAAUAAAA                  459
 4  UUCUACGUGCAAGGAUAUCCAUACGCUGCCCAGCGGGUAGCGAUAUAUGGAGUGAUGUUCCAUGUAGGAGAAGGUGCACUGUCCU [Atrea]                  466
 5  UGGACUAGUGUGAGUGAUGUUCACUUCGAUACCAGCAGAGCGAUCUGCCCUUGGCAGCGAGUUAACUGCCGAAAGGCAAGGUCCA [Theo B SS t9a]                  457
 6  AGAUCUGUAACAGAUACCAGAGGACGAUGAUCGAACAGUGAUGUUAUCUGUUAGUCGUCGCUCCCUUGGCAGCUGUUACAGAUCA [Omei KL Theo B SS B v4]                 72.1
 7  CAUGGUGCUCGCCAGUUGUGCGAACGGUGGGAGGAUAUGUCGCGAGACAGAAGGCCCAGUGAUGUUGGGCAGGCUCGUAGAUCGA [Mazadi]                  165
 8  CCAUCGCUAUUCGAUACCAGCUACUUAGUGAUGUUAAGUUUUUAUCCACUGUAGGUGGAAAGCCCUUGGCAGCGAAUAGUGAUGG [Theophylline B K4 26]                  234
 9  UACAAACGUAGUGAUGUUACGUACUCUGAUACCAGACAAGUGUAAGUCCCUUGGCAGCAGUCAUUUUGCUUAUUAUUUUCUCAAA [JR_ExcTheophyA_Sub019]                 86.4
10  AGUCUCAAAAGAGGCAGCACUCACGAGGACAAGGAUAUCAUCUCAAUGAGAAGGUGUCCUCGUCCCUAGUGAUGUUAGGGAGUGC [Omei KL FMN A SS E v6]                  682
11  GGUGCUGUCUGUGCCGCCUUCCUCGUUCCUCGAGGACCGGUACGGCCGCCACUCGAGUGAUGUUUGGGUAGCGAUCCCUGCUAGC [Bdazzled - #15 Exc. Tryptophan A]                 1030
